Data provenance is patent US20260242478A1.

- assay.system: T1, PSMA Fab (006 PSMA Fab) (biotinylated (site not given))
- T1 construct: also called Anti-PSMA Fab; anti-PSMA Fab
- test.details: clonal phage ELISA; biotinylated PSMA Fab on neutravidin plate, blocking buffer alone; anti-M13 HRP detection;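 also: crude clonal phage supernatants added without washing to wells pretreated with blocking buffer with or without PSMA antigen, short incubation, then washed before detecting bound phage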
Where no end group is shown, it is not given here.
I'd appreciate it if you could supply Phage binding ELISA signal, Anti-PSMA Fab values for the items below.
Form rule: numeric answer, no unit written next to it.

*Q* Value lookup for Phage binding ELISA signal, Anti-PSMA Fab; key = GEKWCTPPWMCMFQ (cysteine pairing not given here; also: displayed on bacteriophage as fusion to pIII, fusion and linker not given here, Tested as clonal phage supernatant; also called Peptide-180 library clone) [Phage-2681]
*A* 0.861

*Q* Value lookup for Phage binding ELISA signal, Anti-PSMA Fab; key = DMNWCSPPWMCFGF (cysteine pairing not given here; also: displayed on bacteriophage as fusion to pIII, fusion and linker not given here, Tested as clonal phage supernatant; also called Peptide-180 library clone) [Phage-2680]
*A* 0.873

*Q* Value lookup for Phage binding ELISA signal, Anti-PSMA Fab; key = IKPLCSPPWMCSMY (cysteine pairing not given here; also: displayed on bacteriophage as fusion to pIII, fusion and linker not given here, Tested as clonal phage supernatant; also called Peptide-180 library clone) [Phage-2689]
*A* 0.839
